Dihydrofolate reductase (Rattus norvegicus): recorded log(1/C) for assorted compounds
value.kind: log(1/C)

A selection of reference data follows.
>>> value("Nc1nc(N)c2cc(S(=O)(=O)c3ccc4ccccc4c3)ccc2n1")
8.4
>>> value("Nc1nc(N)c2cc(NC(=O)Cc3ccc4ccccc4c3)ccc2n1")
8.3
>>> value("Nc1nc(N)c2cc(S(=O)(=O)c3ccc(Cl)c(Cl)c3)ccc2n1")
8.05

I. Nc1nc(N)c2c(Cl)c(NC(=O)CCc3ccc(Cl)cc3)ccc2n1
II. c1ccc2ncncc2c1
[in] Sorting ascending by log(1/C), which comes first: I or II ? Write the label of whichever entry you select.
[out] II

* * *

Quick note: these are log(1/C) numbers for system: Dihydrofolate reductase (Rattus norvegicus)
value.kind: log(1/C)

Examples from the recorded data:
>>> value("Nc1nc(S)nc2ccccc12")
3.72
>>> value("Nc1nc(N)c2c([S+]([O-])c3ccc(Cl)c(Cl)c3)cccc2n1 (configuration not stated)")
4.26
>>> value("CC1CCc2nc(N)nc(O)c2C1 (configuration not stated)")
4.26
>>> value("Nc1nc(N)c2c(Cl)cccc2n1")
6.25
>>> value("Nc1nc(S)nc2ccc(Sc3ccc4ccccc4c3)cc12")
5.52

a. Nc1nc(O)c2c(S(=O)(=O)c3ccc4ccccc4c3)cccc2n1
b. Nc1nc(O)c2cc(S(=O)(=O)c3ccc(Cl)c(Cl)c3)ccc2n1
c. Nc1ncnc2ccccc12
[in] Put the molecules in ascending order of log(1/C). Output the labels ranked as instructed.
[out] c, a, b

1. Nc1nc2ccccc2c(=O)[nH]1
2. Cc1c(NC(=O)Cc2ccc3ccccc3c2)ccc2nc(N)nc(N)c12
[in] Compare 1 and 2 and name the one whose reported log(1/C) is smaller. Respond using the label that marks the chosen record.
[out] 1
(1: 4.31, 2: 8.38)

I. Nc1nc(N)c2cc([S+]([O-])c3ccc4ccccc4c3)ccc2n1 (configuration not stated)
II. Cc1cccc2nc(N)nc(O)c12
[in] Parameter metric = log(1/C). Return the lower-valued option from I and II . Kindly give the label for the entry you pick.
[out] II
(II: 4.8, I: 8.15)

1. Nc1nc(N)c2cc(Sc3ccc(Cl)c(Cl)c3)ccc2n1
2. NCc1ccc2nc(N)nc(N)c2c1
[in] Of the two listed items, which has the higher log(1/C)? First: 1 Second: 2 Reply briefly: the label of your chosen item.
[out] 1

* * *

Listed here: compounds with reported log(1/C) for Dihydrofolate reductase (Rattus norvegicus).
value.kind: log(1/C)

>>> value("CC(C(=O)Nc1ccc2nc(N)nc(N)c2c1Cl)c1ccccc1 (stereo unspecified)")
7.77
>>> value("Cc1c(NC(=O)Cc2cccc(Br)c2)ccc2nc(N)nc(N)c12")
7.47
>>> value("Cc1c(NC(=O)COc2ccc3ccccc3c2)ccc2nc(N)nc(N)c12")
7.82
>>> value("Nc1nc(N)c2cc(NC(=O)CCc3ccc(Cl)cc3)ccc2n1")
7.33
>>> value("Nc1nc(N)c2c(Cl)c(NC(=O)Cc3ccc(Cl)c(Cl)c3)ccc2n1")
7.62
>>> value("Cc1c(NC(=O)Cc2ccc(Br)cc2)ccc2nc(N)nc(N)c12")
7.49

* * *

Recorded below: log(1/C), system UniProt:Q920D2.
value.kind: log(1/C)

Example cases with answers are listed next.
>>> value("Cc1ccc2nc(N)nc(N)c2c1")
5.66
>>> value("Nc1nc(O)c2c(n1)CCCC2")
3.96
>>> value("Nc1nc(N)c2cc(CNC(=O)c3ccc(Cl)c(Cl)c3)ccc2n1")
7

I. Nc1nc(N)c2c(Cl)c(NC(=O)Cc3ccc4ccccc4c3)ccc2n1
II. Nc1nc(N)c2c(/C=C/c3ccc4ccccc4c3)cccc2n1
[in] Endpoint returns the identifier whose log(1/C) is numerically larger, either I or II . Write down the label attached to your selection.
[out] I
(I: 8.3, II: 5.28)

P. Sc1nc(S)c2cc(Sc3ccc4ccccc4c3)ccc2n1
Q. Cc1c(NC(=O)Cc2ccc(Cl)c(Cl)c2)ccc2nc(N)nc(N)c12
[in] Could you point out whether the larger log(1/C) belongs to P or to Q ? // caller expects the label of the chosen entry
[out] Q
(Q: 7.77, P: 5.05)

a. Nc1nc(N)c2c(S(=O)(=O)c3ccc(Cl)c(Cl)c3)cccc2n1
b. Nc1nc(N)c2c(Cl)c(Br)ccc2n1
[in] Hi, I'm comparing two records. Which one has the lower log(1/C), a or b ? Indicate your choice by writing its label.
[out] a
